# Test system: Leishmania Major (promastigotes)
# EXPERIMENT NOTES: Cell growth of Leishmania parasites by MTT assay
# Type: cell-based
# CONDITION NOTES: MTT assay, promastigotes
REPORTED METRIC: IC50, cytotoxic to Leishmania Major (promastigotes) (µg/mL)
Provide only the numeric value, understood in µg/mL.

Fill in IC50, cytotoxic to Leishmania Major (promastigotes) for record C/C=C(/C)C(=O)O[C@H]1[C@H](O)[C@@]2(COC(=O)C(C)CC)C(CC1(C)C)C1=CCC3[C@@]4(C)CC[C@H](O[C@@H]5OC(C(=O)O)[C@@H](O)C(O[C@@H]6O[C@@H](CO)C(O)C6O)C5O[C@@H]5OC(CO)[C@H](O)C(O)C5O)C(C)(C)C4CC[C@@]3(C)[C@]1(C)[C@@H](O)[C@H]2O (stereo partly drawn) [Y7]
18

Fill in IC50, cytotoxic to Leishmania Major (promastigotes) for record CC=C(C)C(=O)OC1C(OC(=O)C(C)=CC)C23C(O)CC4(C)C5(C)CCC6C(C)(C)C(OC7OC(C(=O)O)C(O)C(OC8OC(CO)C(O)C(O)C8OC8OC(C)C(O)C(O)C8OC8OC(C)C(O)C(O)C8O)C7OC7OC(CO)C(O)C(O)C7O)CCC6(C)C5CCC4(OC2O)C3CC1(C)C (stereo not drawn) [Mb5]
15

Fill in IC50, cytotoxic to Leishmania Major (promastigotes) for record C/C=C(/C)C(=O)O[C@H]1[C@H](OC(=O)C(C)C)[C@@]2(CO)C(CC1(C)C)C1=CCC3[C@@]4(C)CC[C@H](O[C@@H]5OC(C(=O)O)[C@@H](O)C(O[C@@H]6O[C@@H](CO)C(O)C6O)C5O[C@@H]5OC(CO)[C@H](O)C(O)C5O)C(C)(C)C4CC[C@@]3(C)[C@]1(C)[C@@H](O)[C@H]2O (stereo partly drawn) [Y0]
25

----------
# System: Leishmania Major (promastigotes)
# EXPERIMENT NOTES: Cell growth of Leishmania parasites by MTT assay
# Type: cell-based
# CONDITION NOTES: MTT assay, promastigotes
Exercise: for every item that follows, state its recorded IC50, cytotoxic to Leishmania Major (promastigotes).
Note: a bare number is incomplete; add the unit.

Fill in IC50, cytotoxic to Leishmania Major (promastigotes) for record C/C=C(/C)C(=O)O[C@H]1[C@H](OC(=O)/C(C)=C/C)[C@@]2(CO)C(CC1(C)C)C1=CCC3[C@@]4(C)CC[C@H](O[C@@H]5OC(C(=O)O)[C@@H](O)C(O[C@@H]6OC[C@@H](O)C(O)C6O)C5O[C@@H]5OC(CO)[C@H](O)C(O)C5O)C(C)(C)C4CC[C@@]3(C)[C@]1(C)C[C@H]2O (stereo partly drawn)
23 µg/mL

Fill in IC50, cytotoxic to Leishmania Major (promastigotes) for record C/C=C(/C)C(=O)O[C@H]1[C@H](OC(=O)/C(C)=C\C)[C@@]2(CO)C(CC1(C)C)C1=CCC3[C@@]4(C)CC[C@H](O[C@@H]5OC(C(=O)O)[C@@H](O)C(O)C5O[C@@H]5OC(CO)[C@H](O)C(O)C5O)C(C)(C)C4CC[C@@]3(C)[C@]1(C)[C@@H](O)[C@H]2O (stereo partly drawn)
16 µg/mL

Fill in IC50, cytotoxic to Leishmania Major (promastigotes) for record C/C=C(/C)C(=O)O[C@H]1[C@H](OC(=O)/C(C)=C\C)[C@@]2(CO)C(CC1(C)C)C1=CCC3[C@@]4(C)CC[C@H](O[C@@H]5OC(C(=O)O)[C@@H](O)C(O[C@@H]6OC[C@@H](O)C(O)C6O)C5O[C@@H]5OC(CO)[C@H](O)C(O)C5O)C(C)(C)C4CC[C@@]3(C)[C@]1(C)C[C@H]2O (stereo partly drawn)
15 µg/mL

From: patent US8586719B2
